Give lethal for every item shown.
System: histamine-induced bronchoconstriction in the guinea pig
assay procedure: BD: bronchodilator activity against histamine-induced bronchoconstriction in the guinea pig
run conditions: guinea pig, 80 mpK po

Completed entries (count: 3):
* CCC(C)Cn1c(=O)n(CC)c(=O)c2c1nc(C)n2C(=O)OC (racemic) | 2/2
* CCCCCn1c(=O)n(C)c(=O)c2c1nc(C)n2C(=O)OC | 2/2
* COC(=O)n1c(C)nc2c1c(=O)n(C)c(=O)n2CCC(C)C | 3/5

Now consider the entry below.
// lethal lookup, compound = CCCOC(=O)n1c(C)nc2c1c(=O)n(C)c(=O)n2CC(C)CC (racemic) , result: 1/4
